- System: HeLa
- experiment.notes: Antiproliferative activity against human HeLa cells assessed as inhibition of cell proliferation measured after 48 hrs by CCK-8 assay
- Assay type: functional, cell-based
readout.name: IC50 (µM)
Numeric answer only, unit µM assumed.

>  <smiles.entry>
COc1cc(-c2ccnc3cc(-c4cn(C)c5ccccc45)nn23)cc(OC)c1OC

>  <readout.name>
IC50

>  <units.text>
µM

>  <observed.measurement>
0.399

$$$$
>  <smiles.entry>
COc1ccc(-c2cc3nccc(-c4cc(OC)c(OC)c(OC)c4)n3n2)cc1N

>  <readout.name>
IC50

>  <units.text>
µM

>  <observed.measurement>
0.283

$$$$

Note to self: IC50 recorded for COc1cc(-c2ccnc3cc(-c4cccc(C)c4)nn23)cc(OC)c1OC was 4.23

---

- Test system: HeLa
- experiment.notes: Antiproliferative activity against human HeLa cells assessed as inhibition of cell proliferation measured after 48 hrs by CCK-8 assay
- Assay type: functional, cell-based
readout.name: IC50

Field: example entries. Status: answers known.
>  <smiles.entry>
C=Cc1ccc(-c2cc3nccc(-c4cc(OC)c(OC)c(OC)c4)n3n2)cc1

>  <system.tested>
HeLa

>  <readout.name>
IC50

>  <observed.measurement>
882 nM

$$$$
>  <smiles.entry>
CCn1c2ccccc2c2cc(-c3cc4nccc(-c5cc(OC)c(OC)c(OC)c5)n4n3)ccc21

>  <system.tested>
HeLa

>  <readout.name>
IC50

>  <observed.measurement>
160 nM

$$$$
>  <smiles.entry>
COc1cc(-c2ccnc3cc(-c4ccc5ccn(C)c5c4)nn23)cc(OC)c1OC

>  <system.tested>
HeLa

>  <readout.name>
IC50

>  <observed.measurement>
187 nM

$$$$
>  <smiles.entry>
COc1cc(-c2ccnc3cc(-c4ccc(N5CCOCC5)cc4)nn23)cc(OC)c1OC

>  <system.tested>
HeLa

>  <readout.name>
IC50

>  <observed.measurement>
> 10000 nM

$$$$
>  <smiles.entry>
COc1ccc(-c2cc3nccc(-c4cc(OC)c(OC)c(OC)c4)n3n2)cc1[N+](=O)[O-]

>  <system.tested>
HeLa

>  <readout.name>
IC50

>  <observed.measurement>
> 10000 nM

$$$$

Considering COc1cc(-c2ccnc3cc(-c4ccc(C)c(C)c4)nn23)cc(OC)c1OC , its IC50 with HeLa was recorded as 241 nM

Considering COc1cc(-c2ccnc3cc(-c4c[nH]c5ccccc45)nn23)cc(OC)c1OC , its IC50 with HeLa was recorded as 195 nM

Considering CC(=O)O[C@H]1C(=O)[C@@]2(C)[C@H]([C@H](OC(=O)c3ccccc3)[C@]3(O)C[C@H](OC(=O)[C@H](O)[C@@H](NC(=O)c4ccccc4)c4ccccc4)C(C)=C1C3(C)C)[C@]1(OC(C)=O)CO[C@@H]1C[C@@H]2O , its IC50 with HeLa was recorded as 41 nM

---

- System: HeLa
- experiment.notes: Antiproliferative activity against human HeLa cells assessed as inhibition of cell proliferation measured after 48 hrs by CCK-8 assay
- Format: functional, cell-based
readout.name: IC50 (nM)
Numeric answer only, unit nM assumed.

Field: example entries. Status: answers known.
>  <compound>
COc1cc(-c2ccnc3cc(-c4ccc(C(C)=O)cc4)nn23)cc(OC)c1OC

>  <units.text>
nM

>  <observed.measurement>
1810

$$$$
>  <compound>
COc1cc(-c2ccnc3cc(-c4cn(C(=O)OC(C)(C)C)c5ccccc45)nn23)cc(OC)c1OC

>  <units.text>
nM

>  <observed.measurement>
3770

$$$$
>  <compound>
COc1cc2c(c(OC)c1OC)-c1ccc(OC)c(=O)cc1[C@@H](NC(C)=O)CC2 [COLCHICINE]

>  <units.text>
nM

>  <observed.measurement>
81

$$$$
>  <compound>
COc1cc(-c2ccnc3cc(-c4cn(CO)c5ccccc45)nn23)cc(OC)c1OC

>  <units.text>
nM

>  <observed.measurement>
103

$$$$
>  <compound>
COc1cc(-c2ccnc3cc(-c4ccc5cc[nH]c5c4)nn23)cc(OC)c1OC

>  <units.text>
nM

>  <observed.measurement>
125

$$$$

Note to self: IC50 recorded for COc1cc(-c2ccnc3cc(-c4ccc(Cl)cc4)nn23)cc(OC)c1OC was 1490

Note to self: IC50 recorded for COc1cc(-c2ccnc3cc(-c4ccc(N(C)C)cc4)nn23)cc(OC)c1OC was 378

Note to self: IC50 recorded for COc1cc(-c2ccnc3cc(-c4ccc5c(cnn5C)c4)nn23)cc(OC)c1OC was 97

Note to self: IC50 recorded for COc1ccc(-c2cc3nccc(-c4cc(OC)c(OC)c(OC)c4)n3n2)cc1F was 236

Note to self: IC50 recorded for COc1cc(-c2ccnc3cc(-c4ccc(CO)cc4)nn23)cc(OC)c1OC was 456

Note to self: IC50 recorded for COc1cc(-c2ccnc3cc(-c4ccccc4)nn23)cc(OC)c1OC was 458

Note to self: IC50 recorded for COc1cc(-c2ccnc3cc(-c4cnn(C)c4)nn23)cc(OC)c1OC was 1830

Note to self: IC50 recorded for COc1cc(-c2ccnc3cc(-c4ccc5c(ccn5C)c4)nn23)cc(OC)c1OC was 19

Note to self: IC50 recorded for COc1ccc(-c2cc3nccc(-c4cc(OC)c(OC)c(OC)c4)n3n2)cc1 was 373

---

- experiment.notes: Metabolic stability in mouse liver microsomes assessed as half life in presence of NADPH at 0.5 uM measured after 4 hrs by LC/MS method
- Assay type: ADME, Microsome
Quick list: half-life at 0.5 µM per entry.
Numeric answer only, unit min assumed.

>  <smiles.entry>
COc1cc(-c2ccnc3cc(-c4ccc(C)cc4)nn23)cc(OC)c1OC

>  <units.text>
min

>  <half-life at 0.5 µM>
120

$$$$

Note to self: half-life at 0.5 µM recorded for COc1cc(-c2ccnc3cc(-c4ccc5c(ccn5C)c4)nn23)cc(OC)c1OC was 7

---

- System: HeLa
- experiment.notes: Antiproliferative activity against human HeLa cells assessed as inhibition of cell proliferation measured after 48 hrs by CCK-8 assay
- Format: functional, cell-based
readout.name: IC50 (µM)
Numeric answer only, unit µM assumed.

>  <smiles.entry>
COc1cc(-c2ccnc3cc(-c4ccc(C(F)(F)F)cc4)nn23)cc(OC)c1OC

>  <system.tested>
HeLa

>  <observed.measurement>
1.84

$$$$

Note to self: IC50 recorded for COc1cc(-c2ccnc3cc(-c4ccc(F)cc4)nn23)cc(OC)c1OC was 5.84

Note to self: IC50 recorded for COc1cc(-c2ccnc3cc(-c4ccc(C)cc4)nn23)cc(OC)c1OC was 0.021

Note to self: IC50 recorded for Cn1ccc2cc(-c3cc4nccc(-c5ccc(F)cc5)n4n3)ccc21 was 5.21

---

Quick list: IC50 per entry.
- experiment.notes: Binding affinity to pig brain tubulin at 37 degree C preincubated for 5 mins
- Type: tissue-based, Sus scrofa
Numeric answer only, unit µM assumed.

>  <smiles.entry>
COc1cc(-c2ccnc3cc(-c4ccc5c(ccn5C)c4)nn23)cc(OC)c1OC

>  <units.text>
µM

>  <IC50>
5.7

$$$$

Now look at this entry.
Note to self: IC50 recorded for COc1cc(-c2ccnc3cc(-c4ccc(C)cc4)nn23)cc(OC)c1OC was 1.6

---

- experiment.notes: Metabolic stability in human liver microsomes assessed as half life in presence of NADPH at 0.5 uM measured after 4 hrs by LC/MS method
- Format: ADME, Microsome
Quick list: half-life at 0.5 µM per entry.
Numeric answer only, unit min assumed.

Field: example entries. Status: answers known.
>  <smiles.entry>
COc1cc(-c2ccnc3cc(-c4ccc(C)cc4)nn23)cc(OC)c1OC

>  <half-life at 0.5 µM (min)>
125

$$$$
>  <smiles.entry>
COc1cc(C(=O)c2csc(-c3ccccc3)n2)cc(OC)c1OC

>  <half-life at 0.5 µM (min)>
17

$$$$

Now look at this entry.
Note to self: half-life at 0.5 µM recorded for COc1cc(-c2ccnc3cc(-c4ccc5c(ccn5C)c4)nn23)cc(OC)c1OC was 20

---

Quick list: IC50 per entry.
- experiment.notes: Binding affinity to pig brain tubulin at 37 degree C without preincubation
- Format: tissue-based, Sus scrofa
Numeric answer only, unit µM assumed.

Note to self: IC50 recorded for COc1cc(-c2ccnc3cc(-c4ccc(C)cc4)nn23)cc(OC)c1OC was 2.1

Note to self: IC50 recorded for COc1cc(-c2ccnc3cc(-c4ccc5c(ccn5C)c4)nn23)cc(OC)c1OC was 6.7
